Documented TGI across a set of compounds
System: RXF 393 renal
Assay: NCI tumour cell line growth inhibition, 48 h

Solved entries (count: 4):
Compound: O=[N+]([O-])c1cccc(-c2cn3c(n2)Cc2ccccc2C3)c1
TGI: > 100 µM
//
Compound: O=C(CSC(c1ccccc1)c1ccccc1)N/N=C/c1ccccc1Cl
TGI: 55.9 µM
//
Compound: CN(C)N=Nc1cccc(C(N)=O)c1
TGI: > 100 µM
//
Compound: COc1ccc(/C=C2\CCC(C)c3c2nc(N)c(C#N)c3-c2ccc(OC)c(OC)c2)cc1OC (stereo not given)
TGI: > 100 µM

Switching to the query record.
Prompt: Short answer please: TGI, RXF 393 renal, entry O=[N+]([O-])c1cccc(S(=O)(=O)N/N=C/c2cc(I)cc([N+](=O)[O-])c2O)c1
Response: 56.3 µM
